target_or_system: PD-L1 on CHO cell line highly expressing PD-L1 (PD-1/PD-L1 blockade bioassay kit, promega J1250) (UniProt Q9NZQ7 19-290, limits assumed)
Sequence (Q9NZQ7 19-290 limits assumed): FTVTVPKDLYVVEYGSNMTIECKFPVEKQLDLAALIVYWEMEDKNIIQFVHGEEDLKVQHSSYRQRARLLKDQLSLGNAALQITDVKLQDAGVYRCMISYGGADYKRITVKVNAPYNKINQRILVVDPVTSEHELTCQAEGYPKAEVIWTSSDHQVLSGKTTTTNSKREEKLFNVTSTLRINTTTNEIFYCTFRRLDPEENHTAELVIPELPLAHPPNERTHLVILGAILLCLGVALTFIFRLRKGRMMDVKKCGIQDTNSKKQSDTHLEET
experimental_protocol: cell-based or functional assay
Average *EC50 [nM], PD-1/PD-L1 blockade bioassay vs 0.6 nM: less than gives satisfied; not less than gives not satisfied.

PD-L1-16E12 (WT/Lambda) (antibody, V domains shown) VH: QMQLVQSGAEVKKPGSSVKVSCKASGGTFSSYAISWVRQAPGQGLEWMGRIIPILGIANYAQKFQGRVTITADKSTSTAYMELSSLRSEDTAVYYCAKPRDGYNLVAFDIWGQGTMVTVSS VL: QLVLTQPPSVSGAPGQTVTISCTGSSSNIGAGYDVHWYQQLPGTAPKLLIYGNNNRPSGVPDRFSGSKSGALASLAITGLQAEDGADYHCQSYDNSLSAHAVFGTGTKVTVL | not satisfied
PDL1-16E12 (LS/4G1) (antibody, V domains shown) VH: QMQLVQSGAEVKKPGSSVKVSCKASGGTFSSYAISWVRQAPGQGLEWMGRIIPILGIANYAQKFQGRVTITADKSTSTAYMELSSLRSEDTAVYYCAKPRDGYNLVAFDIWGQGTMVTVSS VL: QLVLTQPPSVSGAPGQRVTISCTGGSSNIGAGYDVHWYQQLPGTAPKLLLFGNTNRPSGVPGRFSGSKSGSSASLAITGLQSDDEADYYCQSYDSSLSGSVFGTGTKVTVL | satisfied
PDL1-16E12 (LS/4F11) (antibody, V domains shown) VH: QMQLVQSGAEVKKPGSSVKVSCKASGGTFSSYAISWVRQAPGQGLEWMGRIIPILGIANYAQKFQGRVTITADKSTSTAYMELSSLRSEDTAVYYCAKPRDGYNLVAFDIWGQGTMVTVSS VL: QFVLTQPPSVSGAPGQRVTISCTGSSSNIGAGSDVHWYQQLPGTAPKLLIYGNNNRPSGVPDRFSGSKSGTSASLAITGLQAEDEADYYCQSYDSSLNGVVFGGGTKLTVL | not satisfied

Query: Bench note: check whether PDL1-23E5 (antibody, V domains shown, Only FR/CDR pieces are tied to the clone) VH: QVQLVQSGAEVVKPGSSVKVSCKASGDTFSRYAISWVRQAPGQAPEWMGRIIPVLGAANYARKFQDRVTITADISTTTAFMELTSLRSEDTAVYYCARSLSGYSLGAFDVWGPGTLVTVSS VL: QLVLTQPPSVSGAPGQSVSISCIGSNSNIGTPYDVHWYQQIPGEAPKLLIYGSTNRPSGVPDRFSGSRSGSSASLDITGLQADDEAYYYCQSYDRSLGVSDVVFGGGTKLTVL shows Average *EC50 [nM], PD-1/PD-L1 blockade bioassay below 0.6 nM
Response: not satisfied

Query: Bench note: check whether PDL1-16E12 (LS/4B11) (antibody, V domains shown) VH: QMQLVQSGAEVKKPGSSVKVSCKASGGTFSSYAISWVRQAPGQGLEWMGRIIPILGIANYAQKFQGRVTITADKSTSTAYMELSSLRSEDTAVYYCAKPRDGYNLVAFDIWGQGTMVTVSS VL: QLVLTQPPSVSGAPGQRVTISCTGTNSNIGAGHDVQWYQQIPGTAPKLLIYGNNNRPSGVPDRFSGSKSGTLASLAITGLQSEDEADYYCHSYDGSLSEGVFGTGTKVTVL shows Average *EC50 [nM], PD-1/PD-L1 blockade bioassay below 0.6 nM
Response: not satisfied

Query: Bench note: check whether PD-L1-16E12-LS-4F5 (Kappa) (antibody, V domains shown) VH: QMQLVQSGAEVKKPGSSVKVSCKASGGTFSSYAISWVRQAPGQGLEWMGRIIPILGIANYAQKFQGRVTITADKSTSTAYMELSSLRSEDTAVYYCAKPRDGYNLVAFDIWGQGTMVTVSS VL: QLVLTQPPSVSGAPGQRVTISCTGSSSNIGAGYDVHWYQQLPGAAPKLLIYGDINRPSGVPDRFSGSKSGISASLAITGLQAEDEADYYCQSYDSSLSGGVFGGGTKLTVL shows Average *EC50 [nM], PD-1/PD-L1 blockade bioassay below 0.6 nM
Response: satisfied

Query: Bench note: check whether PD-L1-16E12-LS-4F5 (Lambda) (antibody, V domains shown) VH: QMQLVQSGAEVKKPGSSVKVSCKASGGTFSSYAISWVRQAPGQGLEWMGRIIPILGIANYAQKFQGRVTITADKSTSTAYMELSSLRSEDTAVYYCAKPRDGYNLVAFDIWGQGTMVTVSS VL: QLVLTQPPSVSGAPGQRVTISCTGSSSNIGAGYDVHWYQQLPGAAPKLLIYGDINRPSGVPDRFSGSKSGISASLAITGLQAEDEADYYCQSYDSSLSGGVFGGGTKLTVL shows Average *EC50 [nM], PD-1/PD-L1 blockade bioassay below 0.6 nM
Response: satisfied

Query: Bench note: check whether PDL1-27F8 (antibody, V domains shown, Only FR/CDR pieces are tied to the clone) VH: QVQLVQSGAEVKKPGSSVKVSCKASGGTFSSSAFSWVRQAPGHGLEWMGRIIPMFDMTDYAQRFQGRLTIIADESSSTAYMELSSLRSEDTAVYYCARSNPHYMDVWGQGTTVTVSS VL: QLVLTQPPSVSGAPGQRVTISCTGSNSDIGAGHDVHWYQQIPGTAPKVLIYGNTDRPSGVPDRFSGSKSGTSASLAITGLQAEDEADYYCQSYDSSLSGYVFGTGTKVTVL shows Average *EC50 [nM], PD-1/PD-L1 blockade bioassay below 0.6 nM
Response: not satisfied

Query: Bench note: check whether PDL1-31B7 (antibody, V domains shown, Only FR/CDR pieces are tied to the clone) VH: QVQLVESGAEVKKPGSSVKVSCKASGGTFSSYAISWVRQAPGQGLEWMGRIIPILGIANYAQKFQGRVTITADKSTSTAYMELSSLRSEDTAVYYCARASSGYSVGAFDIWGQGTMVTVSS VL: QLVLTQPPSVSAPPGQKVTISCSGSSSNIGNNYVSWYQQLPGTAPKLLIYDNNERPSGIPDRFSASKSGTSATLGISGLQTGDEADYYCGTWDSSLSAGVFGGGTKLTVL shows Average *EC50 [nM], PD-1/PD-L1 blockade bioassay below 0.6 nM
Response: not satisfied

Query: Bench note: check whether PDL1-16E12 (LS/4A7) (antibody, V domains shown, also called PD-L1-16E12-4A7) VH: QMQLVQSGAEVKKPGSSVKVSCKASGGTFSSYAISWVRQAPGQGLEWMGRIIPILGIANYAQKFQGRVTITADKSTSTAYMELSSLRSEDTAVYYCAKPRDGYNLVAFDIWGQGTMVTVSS VL: QLVLTQPPSVSGAPGQRVTISCTGSSSNIGAGYDVHWYQSLPGTVPKLLISGNSNRPPGVPDRFSGSKSGTSASLAITSLQSEDEADYYCHSYDGSLSEGVFGTGTKVTVL shows Average *EC50 [nM], PD-1/PD-L1 blockade bioassay below 0.6 nM
Response: satisfied
